B1: KCNK9 (parent)
chain: CFITLTTIGFGDYVALQTKGALQK

# Variants of: B1
# experiment: protein stability index of a GFP-peptide fusion (GPS, HEK-293T) (PSI 1-6); higher = more stable;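 note: lentivirally expressed fusions sorted by FACS into six bins by GFP to DsRed ratio, PSI derived from sequencing read proportions per bin multiplied by bin number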
# measurement.setup: c terminus: a fixed tail appended
Class key for protein stability index values: low end = under 2, middle = from 2 up to 3, high end = 3 and over

Use the examples below as a reference point.
CFITLTTIGFGDYVALQTKGAQQK [L22Q]    middle
CFITLTHIGFGDYVALQTKGALQK [T7H]    middle

In: Sort into band: AFITLTTIGFGDYVALQTKGALQK [C1A]
Out: middle

In: Sort into band: CFITLTTIGFGWYVALQTKGALQK [D12W]
Out: middle

In: Sort into band: CFITLTTIGFGDMVALQTKGALQK [Y13M]
Out: high end
